Measured values drawn from patent US11377442B2 for this set.

Assignment: determine reported fold induction at 2 µM for the given molecules.
- System: HEK293 pGL4
- experiment notes: Firefly_pGL signal, cmpd/DMSO (pGL4 control cells)
- Assay type: cell-based
- study conditions: Homo sapiens, HEK293, pGL4; 1% FBS; 2 uM; read-out: Firefly, pGL4, 1% FBS, cmpd/DMSO (mean)
Answers are plain numbers.

1) CC(C)CN[C@H]1CS(=O)(=O)C[C@@H]1S(=O)(=O)c1ccc(Cl)cc1
1.5
2) CCCCN[C@H]1CS(=O)(=O)C[C@@H]1S(=O)(=O)c1ccc(Cl)cc1
1.4
3) O=S1(=O)C[C@H](N2CCCCC2)[C@@H](S(=O)(=O)c2ccc(Cl)cc2)C1
1.8
4) O=S1(=O)C[C@H](NC2CCCCCC2)[C@@H](S(=O)(=O)c2ccc(Cl)cc2)C1
2
5) CC(=O)Nc1ccc(S(=O)(=O)[C@H]2CS(=O)(=O)C[C@@H]2NC2CC2)cc1
1.1
6) CC(C)CCN[C@H]1CS(=O)(=O)C[C@@H]1S(=O)(=O)c1cccs1
1.2

For each listed entry, give its fold induction at 2 µM.
1. CC(C)CCN[C@H]1CS(=O)(=O)C[C@@H]1S(=O)(=O)c1ccc(Cl)cc1
2. O=S1(=O)C[C@H](N2CCCC2)[C@@H](S(=O)(=O)c2cccs2)C1
3. CC(=O)N1CCN([C@H]2CS(=O)(=O)C[C@@H]2S(=O)(=O)c2ccc(F)c(C)c2)CC1
4. Cc1cccc(CN[C@H]2CS(=O)(=O)C[C@@H]2S(=O)(=O)c2ccc(Cl)cc2)c1

A.
1: 1.1; 2: 1; 3: 1; 4: 1.9
